Molecular target: Active Human ERK2 (hERK2) (Homo sapiens (Human), UniProt P28482)
Sequence (P28482 whole entry): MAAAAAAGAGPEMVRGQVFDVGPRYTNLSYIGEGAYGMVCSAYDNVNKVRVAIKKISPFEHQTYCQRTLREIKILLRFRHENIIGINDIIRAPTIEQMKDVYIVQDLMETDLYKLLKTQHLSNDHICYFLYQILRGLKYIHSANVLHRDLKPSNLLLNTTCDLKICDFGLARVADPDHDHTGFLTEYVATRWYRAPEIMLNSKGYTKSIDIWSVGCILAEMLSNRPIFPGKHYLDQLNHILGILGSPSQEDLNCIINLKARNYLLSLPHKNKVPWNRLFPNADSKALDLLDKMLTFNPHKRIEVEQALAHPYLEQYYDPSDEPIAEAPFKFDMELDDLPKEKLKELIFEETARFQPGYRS
Experiment: Active Human ERK2 (hERK2) Activity Assay (IMAP-FP)
Format: biochemical
Details: phosphorylated active hERK2, 30 μM ATP; average; read-out: ERK 2 Human average IC50
Protocol: Assays Active Human ERK2 (hERK2) Activity Assay: Activated ERK2 activity was determined in an IMAP-FP assay (Molecular Devices). […] The final reaction in each well of 25 μL consists of 0.5 nM hERK2, 900 nM unlabeled peptide, 80 nM labeled-peptide, and 30 μM ATP. […] Plates were read on EnVision reader after 60 minutes binding equilibration using Fluorescence Polarization protocol (Perkin Elmer).
pIC50: −log10 of the molar value.
value-type: pIC50

Below, 2 molecules whose answers are already recorded.
1) C[C@@H](NC(=O)Nc1cc2[nH]nc(C(C)(C)O)c2cn1)c1ccccc1 [Example 611] :: 6.91
2) COCCNC(=O)Nc1cc2[nH]nc(-c3ccccc3)c2cn1 [Example 627] :: 8.22

[1] Cc1cc(-c2n[nH]c3c(F)c(NC(=O)N[C@H](CO)c4ccccc4)ncc23)ccn1 [Example 544]
[2] Cc1cc(-c2n[nH]c3cc(NC(=O)N[C@H](C)c4ccc(Cl)c(C)c4)ncc23)ccn1 [Example 341]
Name the one with the greater pIC50 value, either 1 or 2 as given. # respond with the chosen item's label 1
